Hello, the source for this data is patent US6818445B2, in case you need it.

target: human Y4 receptor (Homo sapiens); format: binding; details: Table 14
Sequence (P50391 whole entry): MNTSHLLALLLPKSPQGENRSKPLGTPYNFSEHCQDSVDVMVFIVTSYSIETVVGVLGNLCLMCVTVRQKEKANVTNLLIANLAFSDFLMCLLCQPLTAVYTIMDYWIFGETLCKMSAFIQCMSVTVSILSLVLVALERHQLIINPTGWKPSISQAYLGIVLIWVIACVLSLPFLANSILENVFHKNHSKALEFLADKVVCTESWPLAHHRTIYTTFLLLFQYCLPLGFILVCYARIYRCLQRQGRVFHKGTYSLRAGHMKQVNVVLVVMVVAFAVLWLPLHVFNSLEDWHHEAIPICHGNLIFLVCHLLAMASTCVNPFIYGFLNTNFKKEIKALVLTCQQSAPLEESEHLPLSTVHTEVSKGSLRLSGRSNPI
pKi: −log10 of the molar value.

{"Compound": "O=S(=O)(NC[C@H]1CC[C@H](CNC(CO)Cc2ccc(Cl)cc2)CC1)c1cccc2ccccc12 (stereo partly shown)", "pKi": 4.88}

* * *

tested on: food intake of 24 h food-deprived rats; experiment: Food intake in food-deprived rats; assay type: in vivo, rat; details: 30 mg/kg i.p. after 24 h food deprivation, percentage of intake compared to control rats
Where a name gives a salt, the structure may show the parent alone.
Response key: true means Two-hour food intake of food-deprived rats, Mean (%) >= 40%; false means Two-hour food intake of food-deprived rats, Mean (%) < 40%.

{"Compound": "c1ccc(Nc2nc(Nc3ccc(N4CCCCC4)cc3)nc3ccccc23)cc1 [Compound 6, Dihydrochloride]", "Assigned label": "false"}
{"Compound": "Cl.Cl.O=[N+]([O-])c1ccccc1S(=O)(=O)NCC1CCC(CNCc2ccc3ccccc3n2)CC1 (centres unmarked)", "Assigned label": "true"}
{"Compound": "Cl.Cl.Nc1ccccc1S(=O)(=O)NCC1CCC(CNCC2CCc3ccccc3C2)CC1 (centres unmarked)", "Assigned label": "true"}
{"Compound": "CNS(=O)(=O)Cc1ccc(Nc2nc(Nc3ccccc3)c3ccccc3n2)cc1.Cl", "Assigned label": "false"}
{"Compound": "O=S(=O)(NC[C@H]1CC[C@H](CNC(CO)Cc2ccc(Cl)cc2)CC1)c1cccc2ccccc12 (some centres unmarked)", "Assigned label": "false"}
{"Compound": "Cl.c1ccc(Nc2nc(Nc3ccccc3)c3ccccc3n2)cc1", "Assigned label": "false"}
{"Compound": "CNS(=O)(=O)Cc1ccc(Nc2nc(Nc3ccccc3)c3cc(OC)ccc3n2)cc1.Cl", "Assigned label": "true"}
{"Compound": "Cl.O=S(=O)(NC[C@H]1CC[C@H](CNCC2CCc3ccccc3C2)CC1)c1cccc2ccccc12 (some centres unmarked)", "Assigned label": "false"}
{"Compound": "Cl.O=[N+]([O-])c1ccccc1S(=O)(=O)NC[C@H]1CC[C@H](CNCC2CCc3ccccc3C2)CC1 (some centres unmarked)", "Assigned label": "false"}
{"Compound": "Cl.O=S(=O)(NCC1CCC(CNCc2ccc3ccccc3c2)CC1)c1ccccc1C(F)(F)F (centres unmarked)", "Assigned label": "true"}
{"Compound": "Cl.O=S(=O)(NCC1CCC(CNCc2cccc3ccccc23)CC1)c1ccccc1C(F)(F)F (centres unmarked)", "Assigned label": "true"}
{"Compound": "Cl.O=S(=O)(NC[C@H]1CC[C@H](CNCC2CCc3ccccc3C2)CC1)c1ccc2ccccc2c1 (some centres unmarked)", "Assigned label": "false"}
{"Compound": "Nc1nc(NCCCCCCNS(=O)(=O)c2cccc3ccccc23)nc2ccccc12", "Assigned label": "true"}

* * *

Target: human Y1 receptor (Homo sapiens, UniProt P25929)
Sequence (P25929 1-384): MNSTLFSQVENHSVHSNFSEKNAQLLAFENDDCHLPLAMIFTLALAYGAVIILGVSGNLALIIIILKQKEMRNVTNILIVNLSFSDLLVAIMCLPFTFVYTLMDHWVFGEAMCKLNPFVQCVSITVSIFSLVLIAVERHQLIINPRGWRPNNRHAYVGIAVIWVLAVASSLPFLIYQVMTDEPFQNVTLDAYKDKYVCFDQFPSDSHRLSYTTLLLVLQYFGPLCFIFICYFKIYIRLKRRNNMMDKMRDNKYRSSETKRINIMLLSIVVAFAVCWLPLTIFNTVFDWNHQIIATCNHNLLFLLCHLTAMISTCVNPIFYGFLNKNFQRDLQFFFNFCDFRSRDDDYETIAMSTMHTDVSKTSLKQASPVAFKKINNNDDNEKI
Settings: read-out: Binding Affinity (Ki (nM) vs. ^125I-PYY) Human Receptor Y1; Table 14
Collected Ki values appear next to each entry.

{"Compound": "Cl.O=S(=O)(NC[C@H]1CC[C@H](CNCC2CCc3ccccc3C2)CC1)c1cccc2ccccc12 (stereo partly drawn)", "Ki, nM": 3550}
{"Compound": "Cl.Cl.Nc1ccccc1S(=O)(=O)NCC1CCC(CNCC2CCc3ccccc3C2)CC1 (stereo not drawn)", "Ki, nM": 17200}
{"Compound": "Cl.O=S(=O)(NCC1CCC(CNCc2cccc3ccccc23)CC1)c1ccccc1C(F)(F)F (stereo not drawn)", "Ki, nM": 14500}
{"Compound": "Cl.Cl.O=[N+]([O-])c1ccccc1S(=O)(=O)NCC1CCC(CNCc2ccc3ccccc3n2)CC1 (stereo not drawn)", "Ki, nM": 23700}
{"Compound": "Cl.O=S(=O)(NCC1CCC(CNCc2ccc3ccccc3c2)CC1)c1ccccc1C(F)(F)F (stereo not drawn)", "Ki, nM": 13000}
{"Compound": "Cl.O=[N+]([O-])c1ccccc1S(=O)(=O)NC[C@H]1CC[C@H](CNCC2CCc3ccccc3C2)CC1 (stereo partly drawn)", "Ki, nM": 16000}
